Assay: Eletriptan transport across Caco-2 cell monolayers, effect of concentration
Format: in vitro ADME, human
Conditions: human; Caco-2, 25 μM eletriptan, 2 hours, 37° C.; read-out: Absorptive A -> B Papp
Observation Type: Papp A→B at 2 h, 25 μM (×10⁻⁶ cm/s)

- CN1CCC[C@@H]1Cc1c[nH]c2ccc(CCS(=O)(=O)c3ccccc3)cc12: 21.1

====

Experiment: Eletriptan transport across Caco-2 cell monolayers, effect of concentration
Assay type: in vitro ADME, human
Conditions: human; Caco-2, 25 μM eletriptan, 2 hours, 37° C.; read-out: Secretory B -> A Papp
Observation Type: Papp B→A at 2 h, 25 μM

• CN1CCC[C@@H]1Cc1c[nH]c2ccc(CCS(=O)(=O)c3ccccc3)cc12 = 34.1 ×10⁻⁶ cm/s
